For each entry below, report its growth value.
System: NCI/ADR-RES ovarian
Experiment: NCI-60 one-dose screen, 48 h (100 = growth as untreated, 0 = no growth, -100 = all killed)
Conditions: 10 µM unless noted
The panel holds about 83,000 compounds, 20% with a hit somewhere; the sample as a whole holds those more often.
API: value field is a number in %; no unit string.

**Query** Value lookup for growth; key = COc1cc2oc(-c3cccc(NC(=O)Nc4ccc5c(c4)OCO5)c3)cc(=O)c2c(OC)c1OC
**Result** 57.6

**Query** Value lookup for growth; key = COc1cc(/C=C/C(=O)c2ccccc2O)ccc1OCCCOc1cc2c(cc1OC)C(=O)N1CCC[C@H]1C=N2
**Result** 19.3

**Query** Value lookup for growth; key = CCC(c1ccc(OC)cc1)C(CC)c1ccc(OCC[N+](C)(C)C)cc1 (stereo not given)
**Result** 100

**Query** Value lookup for growth; key = COc1cc(C2C=C(C)N=C3SC=CN32)cc(OC)c1OC (stereo not given)
**Result** 110

**Query** Value lookup for growth; key = Cn1c(C(N)=O)cc2c1-c1nc(NC3CCCCC3)ncc1CCC2
**Result** 91.5

**Query** Value lookup for growth; key = Cc1ccc(S(=O)(=O)NCCCNc2nccc(-c3c(-c4ccccc4)nc4sccn34)n2)cc1
**Result** 49

**Query** Value lookup for growth; key = CN(C)C/C=C/C(=O)Nc1cc2c(Nc3ccc(F)c(Cl)c3F)ncnc2cc1OCCOC(F)F
**Result** 20.1

**Query** Value lookup for growth; key = Nc1nc(-c2cc3ccccc3o2)cc(=O)c(=O)[nH]1
**Result** 109

**Query** Value lookup for growth; key = Cc1ccc(C2=NN(c3ccc(S(N)(=O)=O)cc3)C(c3cn(-c4ccccc4)nc3-c3ccccc3)C2)cc1 (stereo not given)
**Result** 90.6

**Query** Value lookup for growth; key = CCN(CC)CCCNc1nc(C)cc(Nc2ccc3nc(C)cc(N)c3c2)n1
**Result** 101

====

Tested on: SF-295 CNS
Experiment: NCI-60 one-dose screen, 48 h (100 = growth as untreated, 0 = no growth, -100 = all killed)
Conditions: 10 µM unless noted
The panel holds about 83,000 compounds, 20% with a hit somewhere; the sample as a whole holds those more often.
For each entry below, report its growth value.
API: value field is a number in %; no unit string.

**Query** Value lookup for growth; key = O=C1Nc2cc(Cl)ccc2/C1=C/c1ccc(N2CCOCC2)s1
**Result** 86.8

**Query** Value lookup for growth; key = CCN(CC)CCCC(C)N=c1cc(Nc2cc(=NC(C)CCCN(CC)CC)c3cc(OC)ccc3o2)oc2ccc(OC)cc12 (stereo not given)
**Result** -9.83

**Query** Value lookup for growth; key = COc1cc(OC)c(C(=O)/C=C/c2ccc(C#N)cc2)c(OC)c1
**Result** 8.32

**Query** Value lookup for growth; key = CCn1cc(C2NC(=O)c3cc(F)ccc3N2)c2cccc(Cl)c21 (stereo not given)
**Result** 10.4

**Query** Value lookup for growth; key = Nc1c(C(=O)Nc2ccccc2)sc2nc3c(cc12)CN(Cc1ccccc1)CC3
**Result** 66.4

**Query** Value lookup for growth; key = Cn1cc(C=O)c2ccccc21
**Result** 107

**Query** Value lookup for growth; key = Cc1cc2c(c(=O)o1)C(c1ccc(OC(=O)N3CCOCC3)cc1)C(C#N)=C(N)O2 (stereo not given)
**Result** 100

**Query** Value lookup for growth; key = NC(C(=O)O)C(O)c1ccc(OCc2ccccc2)c(OCc2ccccc2)c1 (stereo not given)
**Result** 97.8

**Query** Value lookup for growth; key = CCC1CCc2nc3sc(C(=O)Nc4ccccc4F)c(N)c3cc2C1 (stereo not given)
**Result** 46.6

**Query** Value lookup for growth; key = O=C(/C=C/c1ccccc1)n1c(-c2ccc(Cl)cc2)nc2ccccc21
**Result** -52

====

System: IGROV1 ovarian
Experiment: NCI-60 one-dose screen, 48 h (100 = growth as untreated, 0 = no growth, -100 = all killed)
Conditions: 10 µM unless noted
The panel holds about 83,000 compounds, 20% with a hit somewhere; the sample as a whole holds those more often.
For each entry below, report its growth value.
API: value field is a number in %; no unit string.

**Query** Value lookup for growth; key = CCn1cc(C(=O)O)c(=O)c2cc(F)c(N3CCN(S(=O)(=O)c4ccc(Cl)cc4Cl)CC3)cc21
**Result** 7.5

**Query** Value lookup for growth; key = CN(C)c1nc(N)c(N=O)c(N)n1
**Result** 110

**Query** Value lookup for growth; key = NS(=O)(=O)c1ccc(NCC(=O)Nc2ccc(-c3nc4ccccc4s3)cc2)cc1
**Result** 59

**Query** Value lookup for growth; key = CCN(Cc1ccc(CN(CC)C(=O)C(Cl)(Cl)Cl)cc1)C(=O)C(Cl)(Cl)Cl
**Result** 94.9

**Query** Value lookup for growth; key = COc1cccc(-c2nc3sccn3c2-c2ccnc(NCCCNS(=O)(=O)c3ccccc3)n2)c1
**Result** 55.3

**Query** Value lookup for growth; key = Cc1nn(-c2ccc(Cl)cc2)c(=O)n1CCOc1ccccc1Cl
**Result** 117

**Query** Value lookup for growth; key = COc1ccc(NC(=O)CSc2nc3ccccc3c(=O)n2-c2ccccc2C(F)(F)F)c(OC)c1OC
**Result** 127

**Query** Value lookup for growth; key = COc1ccc(NC(=O)/N=c2\oc3c(OC)cccc3cc2-c2cc3ccccc3[nH]2)cc1
**Result** 50

**Query** Value lookup for growth; key = COc1ccc(/C=C/C(=O)c2cccc(B(O)O)c2)cc1O
**Result** 18.2

**Query** Value lookup for growth; key = COc1ccc(OC)c(NC(=O)c2cc(S(=O)(=O)N3CCc4ccccc43)ccc2OC)c1
**Result** -39.9

**Query** Value lookup for growth; key = COc1cc(NS(C)(=O)=O)ccc1Nc1c2ccc([N+](=O)[O-])cc2nc2c(C)cccc12
**Result** -2.46

**Query** Value lookup for growth; key = Cc1ccnc2nc(C(=O)OCC(=O)Nc3ccc(-c4ccccc4)cc3)nn12
**Result** -5.67

**Query** Value lookup for growth; key = CC(C)[C@H](CO)Nc1nc(Nc2ccc(C(=O)NCCNS(=O)(=O)c3cccc4c(N(C)C)cccc34)c(Cl)c2)c2ncn(C(C)C)c2n1
**Result** -13.7

**Query** Value lookup for growth; key = CC1CCc2c(sc(NC(=O)CSc3nnc4ccccn34)c2C(N)=O)C1 (stereo not given)
**Result** 33.8

**Query** Value lookup for growth; key = CCOC(=O)/C=C\C(=O)NC(N)=O
**Result** 104

**Query** Value lookup for growth; key = CCC(C)NCC(=O)O (stereo not given)
**Result** 110

**Query** Value lookup for growth; key = COc1ccc(-c2nc3sccn3c2-c2ccnc(NCCCNS(=O)(=O)c3ccc(C)cc3)n2)cc1
**Result** 33.9

**Query** Value lookup for growth; key = O=C1Nc2cc(Cl)ccc2Oc2cc(Oc3ccccc3)ccc21
**Result** 63.3

**Query** Value lookup for growth; key = COc1cccc(/C=C/C(=O)c2sc(Nc3ccc(O)cc3)nc2C)c1
**Result** 88.1

**Query** Value lookup for growth; key = C/C1=C\CCC2(C)OC2CC2CCC(C)(O)C(CC1)C2(C)C (stereo not given)
**Result** 93.9

**Query** Value lookup for growth; key = O=C1CCCCN1CCCCC#Cc1ccccc1C#Cc1ccc([N+](=O)[O-])cc1
**Result** -36.7

**Query** Value lookup for growth; key = C=CC(=O)N[C@H](/C=C/C(=O)OCC)Cc1ccc(-c2cc(Cl)cc(Cl)c2)cc1
**Result** 93

**Query** Value lookup for growth; key = Cc1c(C(=O)NCc2ccccc2)[n+](=O)c2cc(F)ccc2n1[O-]
**Result** -26.7

**Query** Value lookup for growth; key = CNC(=O)c1cc(Oc2ccc3c(c2)sc2nc(-c4ccc(Cl)cc4)cn23)ccn1
**Result** 87.6

**Query** Value lookup for growth; key = Clc1cccc(Cl)c1Cn1c(-c2cncs2)nc2ccccc21
**Result** 82.6

**Query** Value lookup for growth; key = O=C(O)c1ccc(-n2cc(CNc3ccc(C(F)(F)F)cc3)c(-c3ccccc3)n2)cc1
**Result** 111

**Query** Value lookup for growth; key = CCc1cccc(C)c1NC(=O)c1sc2nc3c(cc2c1N)C(=O)CCC3
**Result** 30.7

**Query** Value lookup for growth; key = CC(C)C[C@H](NC(=O)Cn1ccc(NCc2ccccc2)cc1=O)B(O)O
**Result** 41.1

**Query** Value lookup for growth; key = CC(=O)n1cc([C@H]2CC[C@H](c3cn(C(C)=O)c4ccccc34)c3c2[nH]c2ccccc32)c2ccccc21
**Result** 58.3

**Query** Value lookup for growth; key = O=C(Nc1ccc(I)cc1)c1cccc([N+](=O)[O-])c1O
**Result** 30.4

**Query** Value lookup for growth; key = COc1cccc(-c2nc3sccn3c2-c2ccnc(NCCCNS(=O)(=O)c3ccc(F)cc3)n2)c1
**Result** 34.6

**Query** Value lookup for growth; key = Cc1cnc(NC(=O)C(Cc2ccccc2)NC(=O)c2ccccc2)s1 (stereo not given)
**Result** -19.6

**Query** Value lookup for growth; key = COc1ccc(-c2nnc(COc3ccc(NS(=O)(=O)c4ccc(OC)cc4)cc3F)o2)cc1
**Result** 84.5

**Query** Value lookup for growth; key = Cc1cc(N/C=c2\sc3ncnn3c2=O)no1
**Result** 94.4

**Query** Value lookup for growth; key = O=[N+]([O-])c1ccc(S(=O)(=O)N2CCN(c3ccnc4cc(Cl)ccc34)CC2)c([N+](=O)[O-])c1
**Result** 99.5

**Query** Value lookup for growth; key = COc1ccc(C(=O)/C=C/c2cccc([N+](=O)[O-])c2)c(OC)c1
**Result** 7

**Query** Value lookup for growth; key = O=[N+]([O-])c1cc(S(=O)(=O)OCC2CO2)ccc1Cl (stereo not given)
**Result** 52.6

**Query** Value lookup for growth; key = COc1cc2c(cc1OCCCCn1c(-c3cc(=O)c4ccccc4o3)nc3ccccc31)N=C[C@@H]1CCCN1C2=O
**Result** -16.3

**Query** Value lookup for growth; key = COc1cc(/C=C2\CCCC3=C2NC(C)=NC3c2cc(OC)c(OC)c(OC)c2)cc(OC)c1OC (stereo not given)
**Result** 30.7

**Query** Value lookup for growth; key = COc1ccc(-c2nc3sccn3c2-c2ccnc(NCCCNS(=O)(=O)c3ccc(F)cc3)n2)cc1
**Result** 16.3
